# System: antigen HER2-positive breast cancer cell line BT-474
# protocol_text: In vitro cytotoxicity of ADC (CellTiter Glo), BT-474
# Assay type: cell-based, human
# experimental_conditions: 0.1% O2, 168 hours, ADC DAR about 4
Square brackets hold non-standard residues; d marks the D form. Peptide text beside a SMILES is read from it. * marks the point of attachment. Dolaproine = CO[C@@H]([C@@H]1CCCN1)[C@@H](C)C(=O)O; Dil = CC[C@H](C)[C@H](NC)[C@@H](CC(=O)O)OC; X1 = C[C@@H](N*)[C@@H](O)c1ccccc1; NMeV = CN[C@H](C(=O)O)C(C)C
reported_metric: IC50 (nM)

compound	subject_of_test	numeric_readout
CC[C@H](C)[C@@H]([C@@H](CC(=O)N1CCC[C@H]1[C@H](OC)[C@@H](C)C(=O)N[C@H](C)[C@@H](O)c1ccccc1)OC)N(C)C(=O)[C@@H](NC(=O)[C@@H](NC)C(C)C)C(C)C [MMAE, monomethyl auristatin E] (H-[NMeV]V[Dil][Dolaproine]-X1)	antigen HER2-positive breast cancer cell line BT-474	0.06

---

# System: antigen HER2-positive gastric cancer cell line NCI-N87
# protocol_text: In vitro cytotoxicity of ADC (CellTiter Glo), NCI-N87
# Type: cell-based, human
# experimental_conditions: 0.1% O2, 168 hours, ADC DAR about 4
Square brackets hold non-standard residues; d marks the D form. Peptide text beside a SMILES is read from it. * marks the point of attachment. Dolaproine = CO[C@@H]([C@@H]1CCCN1)[C@@H](C)C(=O)O; Dil = CC[C@H](C)[C@H](NC)[C@@H](CC(=O)O)OC; X1 = C[C@@H](N*)[C@@H](O)c1ccccc1; NMeV = CN[C@H](C(=O)O)C(C)C

compound	IC50
CC[C@H](C)[C@@H]([C@@H](CC(=O)N1CCC[C@H]1[C@H](OC)[C@@H](C)C(=O)N[C@H](C)[C@@H](O)c1ccccc1)OC)N(C)C(=O)[C@@H](NC(=O)[C@@H](NC)C(C)C)C(C)C [MMAE, monomethyl auristatin E] (H-[NMeV]V[Dil][Dolaproine]-X1)	0.23 nM

---

# Tested on: antigen HER2-weakly positive breast cancer cell line MCF-7
# protocol_text: In vitro cytotoxicity of ADC (CellTiter Glo), MCF-7
# Type: cell-based
# experimental_conditions: 0.1% O2, 168 hours, ADC DAR about 4
Square brackets hold non-standard residues; d marks the D form. Peptide text beside a SMILES is read from it. * marks the point of attachment. Dolaproine = CO[C@@H]([C@@H]1CCCN1)[C@@H](C)C(=O)O; Dil = CC[C@H](C)[C@H](NC)[C@@H](CC(=O)O)OC; X1 = C[C@@H](N*)[C@@H](O)c1ccccc1; NMeV = CN[C@H](C(=O)O)C(C)C
reported_metric: IC50 (nM)

molecule	reported_metric	numeric_readout
CC[C@H](C)[C@@H]([C@@H](CC(=O)N1CCC[C@H]1[C@H](OC)[C@@H](C)C(=O)N[C@H](C)[C@@H](O)c1ccccc1)OC)N(C)C(=O)[C@@H](NC(=O)[C@@H](NC)C(C)C)C(C)C [MMAE, monomethyl auristatin E] (H-[NMeV]V[Dil][Dolaproine]-X1)	IC50	3.81

---

# Test system: antigen HER2-negative breast cancer cell line MDA-MB-468
# protocol_text: In vitro cytotoxicity of ADC (CellTiter Glo), MDA-MB-468
# Format: cell-based
# experimental_conditions: 0.1% O2, 168 hours, ADC DAR about 4
# Procedure: The vial containing the target cells was gently stirred in a 37° C. water bath to be thawed. After the content was thawed, the vial was taken out from the water bath and decontaminated by immersion or spraying with 70% ethanol. The cells were re-suspended in the culture medium, settled and distributed into a culture flask with an area of 75 cm^2. […] The cells were harvested and counted to determine the number of cells;
Square brackets hold non-standard residues; d marks the D form. Peptide text beside a SMILES is read from it. * marks the point of attachment. Dolaproine = CO[C@@H]([C@@H]1CCCN1)[C@@H](C)C(=O)O; Dil = CC[C@H](C)[C@H](NC)[C@@H](CC(=O)O)OC; X1 = C[C@@H](N*)[C@@H](O)c1ccccc1; NMeV = CN[C@H](C(=O)O)C(C)C
reported_metric: IC50 (nM)

compound	unit_abbreviation	numeric_readout
CC[C@H](C)[C@@H]([C@@H](CC(=O)N1CCC[C@H]1[C@H](OC)[C@@H](C)C(=O)N[C@H](C)[C@@H](O)c1ccccc1)OC)N(C)C(=O)[C@@H](NC(=O)[C@@H](NC)C(C)C)C(C)C [MMAE, monomethyl auristatin E] (H-[NMeV]V[Dil][Dolaproine]-X1)	nM	0.13
